biological target: Protein S100-B (Rattus norvegicus, UniProt P04631); experiment: Displacement of TAMRA-TRTK12 from recombinant rat calcium loaded S100-B by fluorescence polarization competition assay
pIC50: −log10 of the molar value.
READOUT_LABEL: pIC50

| SMILES_ENTRY | pIC50 |
| --- | --- |
| N=C(N)c1ccc(Oc2ccc(-c3cc4ccc(C(=N)N)cc4[nH]3)cc2)cc1 | 4.18 |
| N=C(NCCCCCCCN)c1ccc(OCCCCCCCCOc2ccc(C(=N)NCCCCCCCN)cc2)cc1 | 4.74 |

a. N=C(NCCCCCN)c1ccc(OCCCCCOc2ccc(C(=N)NCCCCCN)cc2)cc1
b. CNC(=O)NC(=N)c1ccc(OCCCCCCCOc2ccc(C(=N)NC(=O)NC)cc2)cc1
c. N=C(NCCCCCCCN)c1ccc(OCCCCCCCOc2ccc(C(=N)NCCCCCCCN)cc2)cc1
Kindly order the items shown according to pIC50, from the highest value down. State the ranking by listing the labels in the requested order. c, a, b

----------
molecular target: Protein S100-B (Rattus norvegicus, UniProt P04631); experiment: Binding affinity to recombinant rat calcium loaded S100-B by fluorescence spectrophotometric analysis
READOUT_LABEL: Kd (µM)
Expressed in µM, but write only the number.

Value wanted: Kd (Protein S100-B (Rattus norvegicus, UniProt P04631)) of entry `N=C(N)c1ccc(OCCCCCOc2ccc(C(=N)N)cc2)cc1` 44

----------
Target: Protein S100-B (Rattus norvegicus) (UniProt P04631)
Sequence (whole entry): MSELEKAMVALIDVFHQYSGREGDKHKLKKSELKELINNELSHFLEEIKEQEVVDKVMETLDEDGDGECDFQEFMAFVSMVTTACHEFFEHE
Experiment: Displacement of TAMRA-TRTK12 from recombinant rat calcium loaded S100-B at <1 mM by fluorescence polarization competition assay
Active and inactive are the calls of the source. The rule behind the calls is not given here.
READOUT_LABEL: Activity

| SMILES_ENTRY | READOUT_LABEL | TEST_RESULT |
| --- | --- | --- |
| c1cc(C2=NCCCN2)ccc1OCCCCCOc1ccc(C2=NCCCN2)cc1 | Activity | inactive |
| c1cc(C2=NCCN2)ccc1OCCCCCCCCOc1ccc(C2=NCCN2)cc1 | Activity | inactive |
| c1cc(C2=NCCCCN2)ccc1OCCCCCCOc1ccc(C2=NCCCCN2)cc1 | Activity | inactive |
| c1cc(C2=NCCCCN2)ccc1OCCCCCOc1ccc(C2=NCCCCN2)cc1 | Activity | inactive |
| c1cc(C2=NCCN2)ccc1OCCCCCCCOc1ccc(C2=NCCN2)cc1 | Activity | inactive |

I would be grateful if you could share the reported Activity for `c1cc(C2=NCCN2)ccc1OCCCCCOc1ccc(C2=NCCN2)cc1` . inactive

I would be grateful if you could share the reported Activity for `c1cc(C2=NCCCN2)ccc1OCCCCCCCOc1ccc(C2=NCCCN2)cc1` . inactive

----------
target: Protein S100-B (Rattus norvegicus, UniProt P04631); assay: Binding affinity to recombinant rat calcium loaded S100-B by isothermal titration calorimetry
READOUT_LABEL: Kd (µM)
Expressed in µM, but write only the number.

I would be grateful if you could share the reported Kd for `N=C(N)c1ccc(OCCCCCOc2ccc(C(=N)N)cc2)cc1` . 50

----------
assay: Growth inhibition of human WM115 cells expressing high levels of S100-B by SYBR Green based fluorescence method; format: functional, cell-based; conditions: WM-115
Quick reference for EC50 among some compounds
Expressed in µM, but write only the number.

The following compounds have reported results that may help.
| COMPOUND | UNITS_OF_MEASURE | EC50 |
| --- | --- | --- |
| c1cc(C2=NCCCCN2)ccc1OCCCCCCCCOc1ccc(C2=NCCCCN2)cc1 | µM | 5.4 |
| c1cc(C2=NCCCN2)ccc1OCCCCCCCCOc1ccc(C2=NCCCN2)cc1 | µM | 24.8 |
| c1cc(C2=NCCCN2)ccc1OCCCCCCCOc1ccc(C2=NCCCN2)cc1 | µM | 612 |
| N=C(NCCCCCCCN)c1ccc(OCCCCCCCCOc2ccc(C(=N)NCCCCCCCN)cc2)cc1 | µM | 46.3 |
| c1cc(C2=NCCN2)ccc1OCCCCCCCOc1ccc(C2=NCCN2)cc1 | µM | 32.2 |

I would be grateful if you could share the reported EC50 for `N=C(N)c1ccc(OCCCCCCCCOc2ccc(C(=N)N)cc2)cc1` . 245

I would be grateful if you could share the reported EC50 for `c1cc(C2=NCCN2)ccc1OCCCCCCOc1ccc(C2=NCCN2)cc1` . 52

I would be grateful if you could share the reported EC50 for `c1cc(C2=NCCCCN2)ccc1OCCCCCCCOc1ccc(C2=NCCCCN2)cc1` . 7.8

I would be grateful if you could share the reported EC50 for `c1cc(C2=NCCCCN2)ccc1OCCCCCOc1ccc(C2=NCCCCN2)cc1` . 20

I would be grateful if you could share the reported EC50 for `c1cc(C2=NCCCCN2)ccc1OCCCCCCOc1ccc(C2=NCCCCN2)cc1` . 264

I would be grateful if you could share the reported EC50 for `N=C(NCCCCCCCN)c1ccc(OCCCCCCCOc2ccc(C(=N)NCCCCCCCN)cc2)cc1` . 24.3

I would be grateful if you could share the reported EC50 for `c1cc(C2=NCCCN2)ccc1OCCCCCOc1ccc(C2=NCCCN2)cc1` . 203

I would be grateful if you could share the reported EC50 for N=C(N)c1ccc(OCCCCCOc2ccc(C(=N)N)cc2)cc1 [PENTAMIDINE] . 16.3

----------
molecular target: Protein S100-B (Rattus norvegicus, UniProt P04631); experiment: Displacement of TAMRA-TRTK12 from recombinant rat calcium loaded S100-B by […] analysis
pKd: −log10 of the molar value.
READOUT_LABEL: pKd

| SMILES_ENTRY | TARGET_ENTITY | pKd |
| --- | --- | --- |
| N=C(NCCCCCCCN)c1ccc(OCCCCCCCCOc2ccc(C(=N)NCCCCCCCN)cc2)cc1 | Protein S100-B (Rattus norvegicus, UniProt P04631) | 5.80 |
| CNC(=O)NC(=N)c1ccc(OCCCCCCCOc2ccc(C(=N)NC(=O)NC)cc2)cc1 | Protein S100-B (Rattus norvegicus, UniProt P04631) | 4.05 |
| c1cc(C2=NCCN2)ccc1OCCCCCCCOc1ccc(C2=NCCN2)cc1 | Protein S100-B (Rattus norvegicus, UniProt P04631) | 3.69 |
| N=C(N)c1ccc(Oc2ccc(-c3cc4ccc(C(=N)N)cc4[nH]3)cc2)cc1 | Protein S100-B (Rattus norvegicus, UniProt P04631) | 5.22 |

P. N=C(NCCCCCCCN)c1ccc(OCCCCCCCOc2ccc(C(=N)NCCCCCCCN)cc2)cc1
Q. N=C(NCCCCCN)c1ccc(OCCCCCOc2ccc(C(=N)NCCCCCN)cc2)cc1
// select label with min value of measured pKd from [ P , Q ] To answer, give the label that identifies your chosen option. Q

----------
molecular target: Protein S100-B (Rattus norvegicus); experiment: Displacement of TAMRA-TRTK12 from recombinant rat calcium loaded S100-B at <1 mM by fluorescence polarization competition assay
Activity calls are given as the source filed them. The rule behind the calls is not given here.
READOUT_LABEL: Activity

| SMILES_ENTRY | TEST_RESULT |
| --- | --- |
| c1cc(C2=NCCCCN2)ccc1OCCCCCCCCOc1ccc(C2=NCCCCN2)cc1 | inactive |
| c1cc(C2=NCCN2)ccc1OCCCCCCOc1ccc(C2=NCCN2)cc1 | inactive |
| c1cc(C2=NCCCCN2)ccc1OCCCCCCCOc1ccc(C2=NCCCCN2)cc1 | inactive |
| c1cc(C2=NCCCN2)ccc1OCCCCCCCCOc1ccc(C2=NCCCN2)cc1 | inactive |

Then there is this compound:
I would be grateful if you could share the reported Activity for `c1cc(C2=NCCCN2)ccc1OCCCCCCOc1ccc(C2=NCCCN2)cc1` . inactive

----------
Quick reference for EC50 among some compounds
experiment: Growth inhibition of human WM115 cells expressing high levels of S100-B by SYBR Green based fluorescence method; type: functional, cell-based; details: WM-115
Expressed in µM, but write only the number.

The following compounds have reported results that may help.
| SMILES_ENTRY | EC50 / µM |
| --- | --- |
| c1cc(C2=NCCN2)ccc1OCCCCCOc1ccc(C2=NCCN2)cc1 | 56.2 |
| c1cc(C2=NCCCN2)ccc1OCCCCCCOc1ccc(C2=NCCCN2)cc1 | 44.1 |
| CCCN(CCCOc1ccc(C(=N)N)cc1)CCCOc1ccc(C(=N)N)cc1 | 864 |

I would be grateful if you could share the reported EC50 for `c1cc(C2=NCCN2)ccc1OCCCCCCCCOc1ccc(C2=NCCN2)cc1` . 21.8

I would be grateful if you could share the reported EC50 for `N=C(N)c1ccc(OCCCN(CCCOc2ccc(C(=N)N)cc2)Cc2ccccc2)cc1` . 51.8

I would be grateful if you could share the reported EC50 for `N=C(N)c1ccc(OCCCCCCCOc2ccc(C(=N)N)cc2)cc1` . 11.5

I would be grateful if you could share the reported EC50 for `CNC(=O)NC(=N)c1ccc(OCCCCCCCOc2ccc(C(=N)NC(=O)NC)cc2)cc1` . 131

I would be grateful if you could share the reported EC50 for `N=C(NC(=O)Nc1ccccc1)c1ccc(OCCCCCCCOc2ccc(C(=N)NC(=O)Nc3ccccc3)cc2)cc1` . 0.4
